Answer each item with its documented MIC.
System: STAPHYLOCOCCUS AUREUS CMX 553
Experiment: In vitro antibacterial activity, MIC, BHI agar dilution
Format: cell-based
Conditions: S. aureus CMX 553, unit assumed
Expressed in µg/mL, but write only the number.

Query :: If you can, please state the reported MIC value of CC[C@H]1OC(=O)[C@H](C)C(=O)[C@H](C)[C@@H](O[C@@H]2O[C@H](C)C[C@H](N(C)C)[C@H]2O)[C@](C)(OC)C[C@@H](C)C2=NC[C@H](CCCc3ccccc3)N3C(=O)O[C@@]1(C)[C@H]3[C@H]2C [Example 40] .
Result :: 0.78

Query :: Ok, now CCC1OC(=O)C(C)C(=O)C(C)C(OC2OC(C)CC(N(C)C)C2O)C(C)(OC)CC(C)C2=NC(CCOc3ccccc3)CN3C(=O)OC1(C)C3C2C (centres unmarked) [Example 91]
Result :: 0.78

Query :: Ok, now CC[C@H]1OC(=O)[C@H](C)C(=O)[C@H](C)[C@@H](O[C@@H]2O[C@H](C)C[C@H](N(C)C)[C@H]2O)[C@](C)(OC)C[C@@H](C)C2=NC3CN(CCOc4ccccc4)CC3N3C(=O)O[C@@]1(C)[C@H]3[C@H]2C (some centres unmarked) [Example 128]
Result :: 0.39

Query :: Ok, now CC[C@H]1OC(=O)[C@H](C)C(=O)[C@H](C)[C@@H](O[C@@H]2O[C@H](C)C[C@H](N(C)C)[C@H]2O)[C@](C)(OC)C[C@@H](C)C2=NCC(COC(=O)c3ccc([N+](=O)[O-])cc3)N3C(=O)O[C@@]1(C)[C@H]3[C@H]2C (some centres unmarked) [Example 140]
Result :: 0.1

Query :: Ok, now CCC1OC(=O)C(C)C(=O)C(C)C(OC2OC(C)CC(N(C)C)C2O)C(C)(OC)CC(C)C2=NC(c3ccccc3)C(c3ccccc3)N3C(=O)OC1(C)C3C2C (centres unmarked) [Example 7]
Result :: 3.1

====

Test system: STREPTOCOCCUS BOVIS A-5169
Assay: In vitro antibacterial activity, MIC, BHI agar dilution
Assay type: cell-based
Conditions: S. bovis A-5169, unit assumed
TEST READOUT: MIC (µg/mL)
Expressed in µg/mL, but write only the number.

Query :: If you can, please state the reported MIC value of CC[C@H]1OC(=O)[C@H](C)C(=O)[C@H](C)[C@@H](O[C@@H]2O[C@H](C)C[C@H](N(C)C)[C@H]2O)[C@](C)(OC)C[C@@H](C)C2=NC[C@H](COC(=O)c3ccncc3)N3C(=O)O[C@@]1(C)[C@H]3[C@H]2C .
Result :: 0.01

Query :: Ok, now CC[C@H]1OC(=O)[C@H](C)C(=O)[C@H](C)[C@@H](O[C@@H]2O[C@H](C)C[C@H](N(C)C)[C@H]2O)[C@](C)(OC)C[C@@H](C)C2=N[C@H](CN3CCOCC3)CN3C(=O)O[C@@]1(C)[C@H]3[C@H]2C
Result :: 0.02

Query :: Ok, now CC[C@H]1OC(=O)[C@H](C)C(=O)[C@H](C)[C@@H](O[C@@H]2O[C@H](C)C[C@H](N(C)C)[C@H]2O)[C@](C)(OC)C[C@@H](C)C2=N[C@H](Cc3ccccc3)CN3C(=O)O[C@@]1(C)[C@H]3[C@H]2C
Result :: 0.02

Query :: Ok, now CC[C@H]1OC(=O)[C@H](C)C(=O)[C@H](C)[C@@H](O[C@@H]2O[C@H](C)C[C@H](N(C)C)[C@H]2O)[C@](C)(OC)C[C@@H](C)C2=NC(COCc3ccccc3)C(COCc3ccccc3)N3C(=O)O[C@@]1(C)[C@H]3[C@H]2C (some centres unmarked)
Result :: 0.05

Query :: Ok, now CC[C@H]1OC(=O)[C@H](C)C(=O)[C@H](C)[C@@H](O[C@@H]2O[C@H](C)C[C@H](N(C)C)[C@H]2O)[C@](C)(OC)C[C@@H](C)C2=NC3CN(C=O)CC3N3C(=O)O[C@@]1(C)[C@H]3[C@H]2C (some centres unmarked)
Result :: 0.05

Query :: Ok, now CC[C@H]1OC(=O)[C@H](C)C(=O)[C@H](C)[C@@H](O[C@@H]2O[C@H](C)C[C@H](N(C)C)[C@H]2O)[C@](C)(OC)C[C@@H](C)C2=N[C@@H]3CN(C(=O)OCc4ccccc4)C[C@@H]3N3C(=O)O[C@@]1(C)[C@H]3[C@H]2C
Result :: 0.1
